- target: full-length beta-catenin (Axin site) (Homo sapiens, UniProt P35222)
- Construct: 15 nM full-length beta-catenin, 20 nM FITC labeled peptide in buffer
- Sequence (P35222 1-781): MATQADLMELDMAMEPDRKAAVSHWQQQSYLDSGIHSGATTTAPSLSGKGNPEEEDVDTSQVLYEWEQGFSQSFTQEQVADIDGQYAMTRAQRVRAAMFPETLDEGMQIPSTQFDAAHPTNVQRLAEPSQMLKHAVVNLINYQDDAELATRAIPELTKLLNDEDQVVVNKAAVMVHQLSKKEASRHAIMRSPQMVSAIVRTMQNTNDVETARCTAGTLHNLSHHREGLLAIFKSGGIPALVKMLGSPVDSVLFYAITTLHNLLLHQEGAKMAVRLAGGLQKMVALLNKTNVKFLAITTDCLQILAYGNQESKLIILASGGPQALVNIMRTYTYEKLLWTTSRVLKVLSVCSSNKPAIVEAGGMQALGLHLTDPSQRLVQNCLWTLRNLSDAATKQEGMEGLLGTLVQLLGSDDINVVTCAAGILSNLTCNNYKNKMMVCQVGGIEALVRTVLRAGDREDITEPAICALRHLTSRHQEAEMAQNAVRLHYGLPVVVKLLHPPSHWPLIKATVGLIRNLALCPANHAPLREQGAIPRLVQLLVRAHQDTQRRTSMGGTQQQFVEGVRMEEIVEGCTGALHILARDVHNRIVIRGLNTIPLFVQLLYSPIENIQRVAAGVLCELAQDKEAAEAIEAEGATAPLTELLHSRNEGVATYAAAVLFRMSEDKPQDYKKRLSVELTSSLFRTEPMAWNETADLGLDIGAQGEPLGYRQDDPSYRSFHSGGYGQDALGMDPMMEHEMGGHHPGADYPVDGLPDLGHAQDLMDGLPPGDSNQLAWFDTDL
- measurement_notes: Competition fluorescence polarization assay (Axin site probe)
- Format: binding
- condition_parameters: competition fluorescence polarization, Table 2; read-out: in vitro FP EC50
pEC50: −log10 of the molar value. Numbered stars: 1 amine (or outer) side, 2 acyl side, 3 side chain; on linkers, the order of the positions; unused ones are H or OH. Bridge positions count the residues as written; N and C are the ends. Square brackets hold non-standard residues; d marks the D form. Peptide text beside a SMILES is read from it. dαMeDab(Me) = CN(CC[C@@](C)(N[*:1])C(=O)[*:2])[*:3]; dαMeDap(Me) = CN(C[C@@](C)(N[*:1])C(=O)[*:2])[*:3]; X12 = CN(CC=[*:3])CCC[C@@](C)(N[*:1])C(=O)[*:2]; X2 = O=C(OCC=CCOC(=O)[*:2])[*:1]; S5 = C=CCCC[C@](C)(N)C(=O)O
assay_endpoint: pEC50

Briefly, pEC50 measured for CC[C@H](C)[C@@H]1NC(=O)[C@H](Cc2c[nH]cn2)NC(=O)[C@H](C)NC(=O)[C@H](CC(=O)O)NC(=O)[C@H](CC(C)C)NC(=O)[C@H]([C@@H](C)CC)NC(=O)[C@](C)(NC(=O)[C@H](C)NC(C)=O)CCCC=CCOC(=O)N(C)CC[C@@](C)(C(=O)N[C@@H](CCCNC(=N)N)C(=O)N[C@H](C(=O)N[C@@H](Cc2c[nH]c3ccccc23)C(N)=O)C(C)C)NC1=O [FP0501c, Ac-A-R5-I-L-D-A-H-I-MF-R-V-W-NH2] : 6.30 to 7.00

Briefly, pEC50 measured for CC[C@H](C)[C@@H]1NC(=O)[C@@](C)(NC(=O)[C@H](CCC(N)=O)NC(=O)[C@@H]2CCCN2C(C)=O)CCCCCC=CCOC(=O)N2CC[C@@](C(=O)N[C@@H](Cc3c[nH]cn3)C(=O)N[C@H](C(=O)N[C@@H](CCCNC(=N)N)C(=O)N[C@@H](CCCNC(=N)N)C(=O)N[C@H](C(=O)N[C@@H](Cc3c[nH]c4ccccc34)C(=O)N[C@@H](CCCNC(=N)N)C(N)=O)C(C)C)C(C)C)(C2)NC(=O)[C@H](CC(=O)O)NC(=O)[C@H](CC(C)C)NC1=O (single isomer, unassigned) [FP0763c, Ac-P-Q-S7-I-L-D-MB-H-V-R-R-V-W-R-NH2] : 6.30 to 7.00

Briefly, pEC50 measured for CC[C@H](C)[C@@H]1NC(=O)[C@H](Cc2ccccn2)NC(=O)[C@H](C)NC(=O)[C@H](CC(=O)O)NC(=O)[C@H](CC(C)C)NC(=O)[C@H]([C@@H](C)CC)NC(=O)[C@](C)(NC(=O)[C@H](C)NC(C)=O)CCCCCCC=CCOC(=O)N2CC[C@@](C(=O)N[C@@H](Cc3cccs3)C(=O)N[C@H](C(=O)N[C@@H](Cc3c[nH]c4ccccc34)C(N)=O)C(C)C)(C2)NC1=O (single isomer, unassigned) [FP0571c Isomer 1, Ac-A-R8-I-L-D-A-2pyr-I-MB-thi-V-W-NH2] : < 5.30

Briefly, pEC50 measured for CC[C@H](C)[C@@H]1NC(=O)[C@H](Cc2c[nH]cn2)NC(=O)[C@H](C)NC(=O)[C@H](CC(=O)O)NC(=O)[C@H](CC(C)C)NC(=O)[C@H]([C@@H](C)CC)NC(=O)[C@](C)(NC(=O)[C@H](C)NC(C)=O)CCN(C)C(=O)OCC=CCOC(=O)N(C)C[C@](C)(C(=O)N[C@@H](CCCNC(=N)N)C(=O)N[C@H](C(=O)N[C@@H](Cc2c[nH]c3ccccc23)C(N)=O)C(C)C)NC1=O [FP0596c, Ac-A-MG-I-L-D-A-H-I-ME-R-V-W-NH2] (Ac-A[dαMeDab(Me)]ILDAHI[dαMeDap(Me)]RVW-NH2; linker 2-9 via X2) : 5.30 to 6.30

Briefly, pEC50 measured for CC[C@H](C)[C@@H]1NC(=O)[C@H](Cc2ccccn2)NC(=O)[C@H](C)NC(=O)[C@H](CC(=O)O)NC(=O)[C@H](CC(C)C)NC(=O)[C@H]([C@@H](C)CC)NC(=O)[C@](C)(NC(=O)[C@H](C)NC(C)=O)CCCCCCC=CCOC(=O)N2CC[C@@](C(=O)N[C@@H](CC(N)=O)C(=O)N[C@H](C(=O)N[C@@H](Cc3c[nH]c4ccccc34)C(N)=O)C(C)C)(C2)NC1=O (single isomer, unassigned) [FP0558c Isomer 1, Ac-A-R8-I-L-D-A-2pyr-I-MB-N-V-W-NH2] : < 5.30

Briefly, pEC50 measured for CC[C@H](C)[C@@H]1NC(=O)[C@H](Cc2c[nH]cn2)NC(=O)[C@H](C)NC(=O)[C@H](CC(=O)O)NC(=O)[C@H](CC(C)C)NC(=O)[C@H]([C@@H](C)CC)NC(=O)[C@](C)(NC(=O)[C@H](C)NC(C)=O)CCCN(C)CC=CCCC[C@@](C)(C(=O)N[C@@H](CCCNC(=N)N)C(=O)N[C@H](C(=O)N[C@@H](Cc2c[nH]c3ccccc23)C(N)=O)C(C)C)NC1=O [FP0506a, Ac-A-MI-I-L-D-A-H-I-S5-R-V-W-NH2] (Ac-A[X12]ILDAHI[S5]RVW-NH2; staple 2-9) : 5.30 to 6.30

Briefly, pEC50 measured for CC[C@H](C)[C@@H]1NC(=O)[C@H](C)NC(=O)[C@H](C)NC(=O)[C@H](CC(=O)O)NC(=O)[C@H](CC(C)C)NC(=O)[C@H]([C@@H](C)CC)NC(=O)[C@](C)(NC(=O)[C@H](C)NC(C)=O)CCCCCCC=CCOC(=O)N2CC[C@@](C(=O)N[C@@H](CCCNC(=N)N)C(=O)N[C@H](C(=O)N[C@@H](Cc3c[nH]c4ccccc34)C(N)=O)C(C)C)(C2)NC1=O [FP0408c, Ac-A-R8-I-L-D-A-A-I-MB-R-V-W-NH2] : < 5.30

Briefly, pEC50 measured for CC[C@H](C)[C@@H]1NC(=O)C2(NC(=O)[C@H](CCC(N)=O)NC(=O)[C@@H]3CCCN3C(C)=O)CN(C2)C(=O)OCC=CCCCCC[C@](C)(C(=O)N[C@@H](Cc2c[nH]cn2)C(=O)N[C@H](C(=O)N[C@@H](CCCNC(=N)N)C(=O)N[C@@H](CCCNC(=N)N)C(=O)N[C@H](C(=O)N[C@@H](Cc2c[nH]c3ccccc23)C(=O)N[C@@H](CCCNC(=N)N)C(N)=O)C(C)C)C(C)C)NC(=O)[C@H](CC(=O)O)NC(=O)[C@H](CC(C)C)NC1=O (single isomer, unassigned) [FP0727c, Ac-P-Q-MA-I-L-D-R7-H-V-R-R-V-W-R-NH2] : 5.30 to 6.30
